All values here come from patent US20180289678A1.

- Test method notes: Pharmacokinetic profile in fasting humans, ranges over Studies .1 to .5
- Assay type: in vivo
- Settings: human, plasma, oral, 25 mg, multiple doses of 25.0 mg, read-out: geometric mean Cmax,ss
Measure name: Cmax

Item: `OC[C@H]1O[C@@H](c2ccc(Cl)c(Cc3ccc(O[C@H]4CCOC4)cc3)c2)[C@H](O)[C@@H](O)[C@@H]1O` | Cmax: 622 to 676 nM

====

- Test method notes: Study .2: multiple rising dose trial in diabetic patients, once daily for 8 days, pharmacokinetic parameters
- Format: in vivo, human
- Settings: human, plasma, oral, 2.5 mg, 2.5 mg once daily, steady state, Study .2, fasted; read-out: AUCτ,ss Median
Measure name: AUC (µM·h)
Numeric only. Scale: µM·h

Item: `OC[C@H]1O[C@@H](c2ccc(Cl)c(Cc3ccc(O[C@H]4CCOC4)cc3)c2)[C@H](O)[C@@H](O)[C@@H]1O` | AUC: 0.458
